testedOn: T1, Human PD-L1 Dimer (human, UniProt Q9NZQ7 19-239)
T1 construct: also called hPD-L1 dimer; hPD-L1-hFc
assayNotes: SPR (Biacore), mAb captured, 25C
measurementKind: kon
Quote the value and follow it with the unit of measurement.

Return reported kon. Input binder: H2aM8317N (antibody, mouse IgG2, V domains shown, also called H2M8317N) VH: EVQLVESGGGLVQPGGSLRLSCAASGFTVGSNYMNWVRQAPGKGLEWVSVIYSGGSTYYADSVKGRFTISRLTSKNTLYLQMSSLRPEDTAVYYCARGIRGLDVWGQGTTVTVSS VL: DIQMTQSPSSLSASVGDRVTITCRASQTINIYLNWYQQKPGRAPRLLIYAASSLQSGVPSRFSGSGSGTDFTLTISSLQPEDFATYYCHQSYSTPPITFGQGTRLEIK 359000 M⁻¹ s⁻¹
